Value source: the RNAGym collection of RNA variant scans (doi:10.1101/gad.245936.114)

Measured nonsense suppression accompanies every entry in the list below.
B1: tRNA (parent)
chain: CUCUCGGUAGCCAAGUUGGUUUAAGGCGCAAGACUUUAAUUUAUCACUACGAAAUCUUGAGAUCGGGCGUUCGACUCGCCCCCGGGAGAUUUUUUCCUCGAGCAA

# Variants of: B1
# TEST_NAME: nonsense suppression (GFP-seq) (ratio to wild type); higher = more function; SUP4oc tRNA, yeast GFP reporter sort-seq
This sample holds only a part of the variants without activity.

{"MUTATION_KEY": "U17G U21C", "READOUT_RELATION": "=", "nonsense suppression": 1.05}
{"MUTATION_KEY": "U8G U57C", "READOUT_RELATION": "≤", "nonsense suppression": 0.026}
{"MUTATION_KEY": "U4C A31U", "READOUT_RELATION": "=", "nonsense suppression": 1.04}
{"MUTATION_KEY": "A13C A87G", "READOUT_RELATION": "=", "nonsense suppression": 0.127}
{"MUTATION_KEY": "U21G A89G", "READOUT_RELATION": "=", "nonsense suppression": 0.0399}
{"MUTATION_KEY": "U8A A23G C80G G84C", "READOUT_RELATION": "≤", "nonsense suppression": 0.026}
{"MUTATION_KEY": "U76C G78C", "READOUT_RELATION": "=", "nonsense suppression": 0.118}
{"MUTATION_KEY": "A24C G65U", "READOUT_RELATION": "=", "nonsense suppression": 0.0266}
{"MUTATION_KEY": "G10A C11U C64U", "READOUT_RELATION": "≤", "nonsense suppression": 0.026}
{"MUTATION_KEY": "U63A C82U", "READOUT_RELATION": "=", "nonsense suppression": 0.178}
{"MUTATION_KEY": "U4A C11U C34U", "READOUT_RELATION": "≤", "nonsense suppression": 0.026}
{"MUTATION_KEY": "C29A G65C U71G", "READOUT_RELATION": "≤", "nonsense suppression": 0.026}
{"MUTATION_KEY": "C75U G78C", "READOUT_RELATION": "=", "nonsense suppression": 1.14}
{"MUTATION_KEY": "C5G G84U", "READOUT_RELATION": "=", "nonsense suppression": 0.475}
{"MUTATION_KEY": "C27U U58A G59A", "READOUT_RELATION": "≤", "nonsense suppression": 0.026}
{"MUTATION_KEY": "G28C U71C", "READOUT_RELATION": "=", "nonsense suppression": 0.112}
{"MUTATION_KEY": "U21G U76C", "READOUT_RELATION": "=", "nonsense suppression": 0.861}
{"MUTATION_KEY": "G78A A87U", "READOUT_RELATION": "=", "nonsense suppression": 0.032}
{"MUTATION_KEY": "A9C U22G", "READOUT_RELATION": "=", "nonsense suppression": 0.878}
{"MUTATION_KEY": "G10A C29G A54G", "READOUT_RELATION": "≤", "nonsense suppression": 0.026}
{"MUTATION_KEY": "U21C G28U A31U A33G G78U C79A", "READOUT_RELATION": "≤", "nonsense suppression": 0.026}
{"MUTATION_KEY": "G61A G67A G73C", "READOUT_RELATION": "≤", "nonsense suppression": 0.026}
